Target: Serotonin transporter (SERT) (Homo sapiens)
Sequence (P31645 whole entry): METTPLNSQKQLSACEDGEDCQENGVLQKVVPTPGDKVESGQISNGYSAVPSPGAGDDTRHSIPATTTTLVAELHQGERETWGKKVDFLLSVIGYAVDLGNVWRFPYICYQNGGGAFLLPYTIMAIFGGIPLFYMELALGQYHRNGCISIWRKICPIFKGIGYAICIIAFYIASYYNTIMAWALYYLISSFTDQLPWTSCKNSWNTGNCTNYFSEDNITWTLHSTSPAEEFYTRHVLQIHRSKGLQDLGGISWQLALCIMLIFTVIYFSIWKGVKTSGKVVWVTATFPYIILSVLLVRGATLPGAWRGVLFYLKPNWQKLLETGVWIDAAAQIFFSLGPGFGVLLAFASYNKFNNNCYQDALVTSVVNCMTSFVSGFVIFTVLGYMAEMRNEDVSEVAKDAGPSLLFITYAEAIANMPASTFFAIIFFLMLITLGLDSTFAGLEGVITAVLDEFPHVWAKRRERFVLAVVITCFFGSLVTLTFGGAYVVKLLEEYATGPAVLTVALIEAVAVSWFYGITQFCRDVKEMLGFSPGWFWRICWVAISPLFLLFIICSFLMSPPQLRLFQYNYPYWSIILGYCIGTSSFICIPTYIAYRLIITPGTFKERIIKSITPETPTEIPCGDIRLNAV
pIC50: −log10 of the molar value.

Smiles Input: COC(=O)[C@@H](c1ccc(-c2ccccc2)cc1)[C@H]1C=CCCN1
pIC50: 4.84

----------
Biological target: Dopamine D4.2 (Homo sapiens, UniProt P21917, DEL265-296)
Sequence (P21917 with tags, fused parts or gaps DEL265-296): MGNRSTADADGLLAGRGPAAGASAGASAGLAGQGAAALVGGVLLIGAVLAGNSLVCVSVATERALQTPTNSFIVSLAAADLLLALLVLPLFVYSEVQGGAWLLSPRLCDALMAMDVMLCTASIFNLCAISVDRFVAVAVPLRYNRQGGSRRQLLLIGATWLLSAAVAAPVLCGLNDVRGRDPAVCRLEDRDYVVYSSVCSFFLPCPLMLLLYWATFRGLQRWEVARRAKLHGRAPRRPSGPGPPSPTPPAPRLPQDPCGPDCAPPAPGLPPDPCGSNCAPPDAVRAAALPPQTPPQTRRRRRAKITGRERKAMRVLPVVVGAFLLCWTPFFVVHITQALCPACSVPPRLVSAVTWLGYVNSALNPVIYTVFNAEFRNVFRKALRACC
Experiment: Radioligand binding, Dopamine D4.2 ([3H]Spiperone)
pIC50: −log10 of the molar value.

Smiles Input: COC(=O)[C@@H](c1ccc(-c2ccccc2)cc1)[C@H]1C=CCCN1
Tgt: Dopamine D4.2 (Homo sapiens, UniProt P21917, DEL265-296)
pIC50: 4.30

----------
Biological target: Dopamine D2L (Homo sapiens, UniProt P14416)
Sequence (P14416 whole entry): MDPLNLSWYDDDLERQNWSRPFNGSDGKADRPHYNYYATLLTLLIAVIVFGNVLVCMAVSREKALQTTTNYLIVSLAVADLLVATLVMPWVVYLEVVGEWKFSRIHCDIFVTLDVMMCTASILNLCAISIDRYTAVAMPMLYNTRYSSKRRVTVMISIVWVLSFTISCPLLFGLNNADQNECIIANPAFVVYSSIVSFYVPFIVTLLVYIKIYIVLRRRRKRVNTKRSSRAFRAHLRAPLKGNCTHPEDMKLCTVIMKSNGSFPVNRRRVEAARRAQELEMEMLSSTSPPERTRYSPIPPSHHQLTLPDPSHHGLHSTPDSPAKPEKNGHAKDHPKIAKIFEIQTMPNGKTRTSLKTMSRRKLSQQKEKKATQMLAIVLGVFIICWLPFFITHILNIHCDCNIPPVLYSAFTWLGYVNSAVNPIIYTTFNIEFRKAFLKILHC
Reported Metric: IC50

Smiles Input: COC(=O)[C@@H](c1ccc(-c2ccccc2)cc1)[C@H]1C=CCCN1
Meas Value: 88.2 µM

----------
Target: UniProtKB P14416

Compound: COC(=O)[C@@H](c1ccc(-c2ccccc2)cc1)[C@H]1C=CCCN1 [Compound 2]
Ki: 18.7 µM

----------
Target: dopamine transporter (Rattus norvegicus)
Construct: tissue Pel-Freez, Rogers, AR; host or cells: rat striatum membranes
Sequence (P23977 whole entry): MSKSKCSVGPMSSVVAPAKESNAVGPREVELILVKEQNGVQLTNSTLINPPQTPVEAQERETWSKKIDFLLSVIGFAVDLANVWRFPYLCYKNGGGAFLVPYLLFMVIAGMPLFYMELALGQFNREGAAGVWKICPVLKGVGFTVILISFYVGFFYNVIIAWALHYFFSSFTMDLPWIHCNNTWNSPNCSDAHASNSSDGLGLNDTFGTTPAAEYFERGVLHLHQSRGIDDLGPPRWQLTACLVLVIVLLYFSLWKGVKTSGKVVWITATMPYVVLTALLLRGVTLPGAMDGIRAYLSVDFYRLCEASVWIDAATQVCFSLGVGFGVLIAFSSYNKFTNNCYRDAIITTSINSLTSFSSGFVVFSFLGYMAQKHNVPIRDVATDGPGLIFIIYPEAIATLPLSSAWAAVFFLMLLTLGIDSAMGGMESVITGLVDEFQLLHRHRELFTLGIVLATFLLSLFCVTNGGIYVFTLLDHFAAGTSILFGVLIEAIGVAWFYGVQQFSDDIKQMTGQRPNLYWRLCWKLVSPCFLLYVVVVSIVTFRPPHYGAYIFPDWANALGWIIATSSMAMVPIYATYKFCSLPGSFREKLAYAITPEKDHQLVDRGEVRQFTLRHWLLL
Assay: [125I]RTI-55 displacement at dopamine transport sites, rat striatum membranes
Format: binding
Conditions: DA (IC50, nM), displacement of 10 pM [125I]RTI-55, rat striatum
Description: For this Example, binding of at biogenic amine transporters was determined using striatum and frontal cortex dissected from frozen Sprague-Dawley rat brains (Pel-Freez, Rogers, AR). Affinities of analogs at dopamine transport sites were determined by displacement of [^125I]RTI-55 binding in membranes from rat striatum, using 0.5 mg (original wet weight) of membranes and 10 pM [^125]RTI-55. Non-specific binding was determined in the presence of 1 μM WF-23 (analog 3a). […]
Lab note: cut-off is 6000 nM. Strictly less in IC50 is condition met. Exactly 6000 nM or more is condition not met.

Molecule: COC(=O)[C@H](c1ccc(Cl)cc1)[C@@H]1C=CCCN1
Classification: condition met
//
Molecule: COC(=O)[C@@H](c1ccc(Cl)cc1)[C@H]1C=CCCN1
Classification: condition met
//
Molecule: COC(=O)C(c1ccc(Cl)cc1)C1C=CCCN1 (racemic) [(±)-4c]
Classification: condition not met
//
Molecule: COC(=O)[C@H](c1ccc2ccccc2c1)[C@@H]1C=CCCN1
Classification: condition met

----------
Target: Dopamine D2s (Homo sapiens)
Sequence (P14416 1-414 isoform P14416-2): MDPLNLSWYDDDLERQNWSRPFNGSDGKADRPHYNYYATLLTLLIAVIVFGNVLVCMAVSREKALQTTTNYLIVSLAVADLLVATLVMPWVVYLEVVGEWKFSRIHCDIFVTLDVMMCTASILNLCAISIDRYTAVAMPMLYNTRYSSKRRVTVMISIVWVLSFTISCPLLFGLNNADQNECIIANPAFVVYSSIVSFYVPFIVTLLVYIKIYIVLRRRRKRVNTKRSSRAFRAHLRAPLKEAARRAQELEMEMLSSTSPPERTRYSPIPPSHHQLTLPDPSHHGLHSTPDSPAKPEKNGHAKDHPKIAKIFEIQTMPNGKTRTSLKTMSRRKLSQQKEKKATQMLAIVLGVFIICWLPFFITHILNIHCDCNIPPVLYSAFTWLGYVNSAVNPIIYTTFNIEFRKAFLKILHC
pIC50: −log10 of the molar value.
Reported Metric: pIC50

Smiles Input: COC(=O)[C@@H](c1ccc(-c2ccccc2)cc1)[C@H]1C=CCCN1
Meas Value: 4.29

----------
Listing of recorded Ki by entry.
Target: 5-HT transporter (Rattus norvegicus, UniProt P31652)
Sequence (P31652 whole entry): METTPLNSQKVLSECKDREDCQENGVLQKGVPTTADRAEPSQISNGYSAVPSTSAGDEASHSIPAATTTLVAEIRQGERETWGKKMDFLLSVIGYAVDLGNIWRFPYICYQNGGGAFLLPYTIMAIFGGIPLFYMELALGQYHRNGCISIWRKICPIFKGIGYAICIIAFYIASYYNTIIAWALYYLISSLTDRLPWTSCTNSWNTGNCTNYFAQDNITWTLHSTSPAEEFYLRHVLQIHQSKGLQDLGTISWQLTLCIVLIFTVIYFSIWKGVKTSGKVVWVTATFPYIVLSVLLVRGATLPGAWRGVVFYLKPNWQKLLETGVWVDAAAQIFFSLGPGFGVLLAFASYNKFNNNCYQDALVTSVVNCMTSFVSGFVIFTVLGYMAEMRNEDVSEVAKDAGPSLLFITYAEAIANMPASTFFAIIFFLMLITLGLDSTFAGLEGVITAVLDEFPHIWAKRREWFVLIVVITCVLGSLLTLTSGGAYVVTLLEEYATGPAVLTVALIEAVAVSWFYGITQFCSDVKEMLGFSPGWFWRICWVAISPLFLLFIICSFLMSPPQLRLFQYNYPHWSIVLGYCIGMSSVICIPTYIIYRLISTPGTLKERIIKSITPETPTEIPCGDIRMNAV
Reported Metric: Ki

Molecule: COC(=O)C(c1ccc(Cl)cc1)C1C=CCCN1 (racemic) [(±)-4c]
Tgt: 5-HT transporter (Rattus norvegicus, UniProt P31652)
Meas Value: > 10000 nM
//
Molecule: COC(=O)C(c1ccc2ccccc2c1)C1C=CCCN1 (racemic) [(±)-4f]
Tgt: 5-HT transporter (Rattus norvegicus, UniProt P31652)
Meas Value: 1200 nM
//
Molecule: COC(=O)[C@@H](c1ccc2ccccc2c1)[C@H]1C=CCCN1
Tgt: 5-HT transporter (Rattus norvegicus, UniProt P31652)
Meas Value: 1960 nM
//
Molecule: COC(=O)[C@@H](c1ccc(Cl)cc1)[C@H]1C=CCCN1
Tgt: 5-HT transporter (Rattus norvegicus, UniProt P31652)
Meas Value: > 10000 nM
//
Molecule: COC(=O)C(c1ccc(Cl)c(Cl)c1)C1C=CCCN1 (stereo not shown)
Tgt: 5-HT transporter (Rattus norvegicus, UniProt P31652)
Meas Value: > 10000 nM
//
Molecule: COC(=O)[C@H](c1ccc2ccccc2c1)[C@@H]1C=CCCN1
Tgt: 5-HT transporter (Rattus norvegicus, UniProt P31652)
Meas Value: 608 nM
//
Molecule: COC(=O)[C@H](c1ccc(Cl)cc1)[C@@H]1C=CCCN1
Tgt: 5-HT transporter (Rattus norvegicus, UniProt P31652)
Meas Value: > 10000 nM

----------
Target: Serotonin 5HT2C (Homo sapiens, UniProt P28335)
Sequence (P28335 33-458): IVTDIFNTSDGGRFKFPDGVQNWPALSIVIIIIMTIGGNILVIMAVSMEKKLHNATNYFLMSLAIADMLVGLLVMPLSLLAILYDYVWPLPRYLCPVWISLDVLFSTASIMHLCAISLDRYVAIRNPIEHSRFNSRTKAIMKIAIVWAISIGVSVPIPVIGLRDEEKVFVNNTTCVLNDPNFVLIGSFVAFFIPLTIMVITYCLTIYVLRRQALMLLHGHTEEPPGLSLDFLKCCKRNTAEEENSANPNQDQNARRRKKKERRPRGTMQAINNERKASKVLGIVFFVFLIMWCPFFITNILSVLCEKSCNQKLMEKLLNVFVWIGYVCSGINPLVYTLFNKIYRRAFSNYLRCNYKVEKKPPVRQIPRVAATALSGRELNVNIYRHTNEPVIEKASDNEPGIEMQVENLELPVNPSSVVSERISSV

Smiles Input: COC(=O)[C@@H](c1ccc(-c2ccccc2)cc1)[C@H]1C=CCCN1
Tgt: Serotonin 5HT2C (Homo sapiens, UniProt P28335)
Unit Of Measurement: µM
IC50: 13.4

The measured values listed here are drawn from patent US7851487B2.
